Values compiled from patent US20040176431A1.

biological target: CDK4/cyclin D3 (Homo sapiens); construct: made in house; host or cells: insect cells (baculovirus co-infection); experiment: Inhibition of CDK4/Cyclin D retinoblastoma kinase activity; format: biochemical; conditions: test compound at 1 μM (head line shifted: 'mM' printed beside 'Structure'); 1 µM
test_readout: % Inhib CDK4/D @ 1 μM (%)

Known % Inhib CDK4/D @ 1 μM results, listed for orientation:
>  <compound>
Nc1nc(Nc2ccc(S(=O)(=O)CCN3CCOCC3)cc2)sc1C(=O)c1c(Cl)cccc1Cl [DD(199)]

>  <% Inhib CDK4/D @ 1 μM, %>
40.5

$$$$
>  <compound>
COc1cccc(CS(=O)(=O)c2ccc(Nc3nc(N)c(C(=O)c4c(Cl)cccc4Cl)s3)cc2)c1 [DD(177)]

>  <% Inhib CDK4/D @ 1 μM, %>
3.2

$$$$
>  <compound>
CCOC(=O)CCS(=O)(=O)c1ccc(Nc2nc(N)c(C(=O)c3c(Cl)cccc3Cl)s2)cc1 [DD(182))]

>  <% Inhib CDK4/D @ 1 μM, %>
5.4

$$$$
>  <compound>
CC(C)(CO)CS(=O)(=O)c1ccc(Nc2nc(N)c(C(=O)c3c(Cl)cccc3Cl)s2)cc1 [DD(200)]

>  <% Inhib CDK4/D @ 1 μM, %>
22.4

$$$$
>  <compound>
C=CCCS(=O)(=O)c1ccc(Nc2nc(N)c(C(=O)c3c(Cl)cccc3Cl)s2)cc1 [DD(206)]

>  <% Inhib CDK4/D @ 1 μM, %>
47.3

$$$$

(a) Nc1nc(Nc2ccc(S(=O)(=O)CC3CCCO3)cc2)sc1C(=O)c1c(Cl)cccc1Cl (centres unmarked) [DD(218)]
(b) Nc1nc(Nc2ccc(S(=O)(=O)CCCO)cc2)sc1C(=O)c1c(Cl)cccc1Cl [DD(205)]
Which item exceeds the other in % Inhib CDK4/D @ 1 μM, a or b ? Lab note: record the label of whichever item you select.
b

###

molecular target: CDK4/cyclin D3 (Homo sapiens, UniProt P11802); construct: made in house; host or cells: insect cells (baculovirus co-infection); assay: Inhibition of CDK4/Cyclin D retinoblastoma kinase activity; type: biochemical; conditions: test compound at 1 μM (head line shifted: 'mM' printed beside 'Structure'); 1 µM;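 for % Inhib CDK4/D @ 1 μM: relative to DMSO control wells without compound minus no-enzyme background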
Sequence (P11802 whole entry): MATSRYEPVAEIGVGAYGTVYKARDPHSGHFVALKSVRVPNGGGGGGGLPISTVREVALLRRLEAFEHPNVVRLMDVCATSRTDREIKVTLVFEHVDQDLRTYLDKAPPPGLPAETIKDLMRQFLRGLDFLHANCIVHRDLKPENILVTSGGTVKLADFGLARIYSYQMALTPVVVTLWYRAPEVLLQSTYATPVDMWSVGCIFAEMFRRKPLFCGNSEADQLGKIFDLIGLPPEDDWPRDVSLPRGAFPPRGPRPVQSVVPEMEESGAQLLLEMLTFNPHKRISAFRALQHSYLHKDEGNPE
Sequence (P30281 1-264 partner limits assumed): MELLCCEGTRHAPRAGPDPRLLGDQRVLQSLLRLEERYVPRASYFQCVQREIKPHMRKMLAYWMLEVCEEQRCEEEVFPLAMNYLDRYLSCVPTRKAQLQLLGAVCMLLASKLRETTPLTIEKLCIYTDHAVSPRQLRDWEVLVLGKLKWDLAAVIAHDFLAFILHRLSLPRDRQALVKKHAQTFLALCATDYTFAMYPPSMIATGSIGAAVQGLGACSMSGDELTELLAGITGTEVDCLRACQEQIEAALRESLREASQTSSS
test_readout: % Inhib CDK4/D @ 1 μM (%)

Answered cases to consult:
>  <molecule>
Nc1nc(Nc2ccc(S(=O)(=O)CC3CO3)cc2)sc1C(=O)c1c(Cl)cccc1Cl (centres unmarked) [DD(212)]

>  <obs_value>
−14

$$$$
>  <molecule>
CC(=O)OCCS(=O)(=O)c1ccc(Nc2nc(N)c(C(=O)c3c(Cl)cccc3Cl)s2)cc1 [DD(197)]

>  <obs_value>
62.3

$$$$

(P) Nc1nc(Nc2ccc(S(=O)(=O)CCN3CCCC3)cc2)sc1C(=O)c1c(Cl)cccc1Cl [DD(167)]
(Q) NC(=O)CCSc1ccc(Nc2nc(N)c(C(=O)c3c(Cl)cccc3Cl)s2)cc1
(R) CC(C)OC(=O)CS(=O)(=O)c1ccc(Nc2nc(N)c(C(=O)c3c(Cl)cccc3Cl)s2)cc1 [DD(223)]
(S) CC1(CS(=O)(=O)c2ccc(Nc3nc(N)c(C(=O)c4c(Cl)cccc4Cl)s3)cc2)CO1 (centres unmarked) [DD(220)]
Rank the items in ascending order with respect to % Inhib CDK4/D @ 1 μM. # the answer lists labels in the order requested
P, R, S, Q
(P: 0.8%, R: 11.7%, S: 26.3%, Q: 87.2%)

(I) CC(C)=CCS(=O)(=O)c1ccc(Nc2nc(N)c(C(=O)c3c(Cl)cccc3Cl)s2)cc1 [DD(184)]
(II) CC(C)CCOC(=O)CS(=O)(=O)c1ccc(Nc2nc(N)c(C(=O)c3c(Cl)cccc3Cl)s2)cc1 [DD(193)]
Compare the recorded % Inhib CDK4/D @ 1 μM of I and II ; state which is larger. Mark your answer with the label of the selected entry.
II
(II: 61.1%, I: −3.3%)

###

molecular target: CDK4/cyclin D3 (Homo sapiens, UniProt P11802); construct: made in house; host or cells: insect cells (baculovirus co-infection); assay: Inhibition of CDK4/Cyclin D retinoblastoma kinase activity; assay type: biochemical; settings: test compound at 1 μM (head line shifted: 'mM' printed beside 'Structure'); read-out: % Inhib CDK4/D @ 1 μM;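 for % Inhib CDK4/D @ 1 μM: relative to DMSO control wells without compound minus no-enzyme background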
test_readout: inhibition at 1 µM (%)

Reference set, count: 5
>  <molecule>
CCN(CC)C(=O)C[S+]([O-])c1cccc(Nc2nc(N)c(C(=O)c3c(Cl)cccc3Cl)s2)c1 (centres unmarked)

>  <inhibition at 1 µM / %>
59.8

$$$$
>  <molecule>
CCC(CC)S(=O)(=O)c1ccc(Nc2nc(N)c(C(=O)c3c(Cl)cccc3Cl)s2)cc1

>  <inhibition at 1 µM / %>
14.4

$$$$
>  <molecule>
CCN(CC)C(=O)CSc1cccc(Nc2nc(N)c(C(=O)c3c(Cl)cccc3Cl)s2)c1

>  <inhibition at 1 µM / %>
70.3

$$$$
>  <molecule>
Nc1nc(Nc2cccc([S+]([O-])CCN3CCCC3)c2)sc1C(=O)c1c(Cl)cccc1Cl (centres unmarked)

>  <inhibition at 1 µM / %>
49.6

$$$$
>  <molecule>
CC(CN(C)C)C[S+]([O-])c1cccc(Nc2nc(N)c(C(=O)c3c(Cl)cccc3Cl)s2)c1 (centres unmarked)

>  <inhibition at 1 µM / %>
51.2

$$$$

(a) CC(C)=CCSc1ccc(Nc2nc(N)c(C(=O)c3c(Cl)cccc3Cl)s2)cc1
(b) Nc1nc(Nc2ccc([S+]([O-])CCN3CCCC3)cc2)sc1C(=O)c1c(Cl)cccc1Cl (centres unmarked)
From the items above, decide which of a and b has the lower inhibition at 1 µM reading. Refer to your chosen entry by its label in the reply.
a
(a: 42.5%, b: 68.2%)

###

biological target: CDK4/cyclin D3 (Homo sapiens, UniProt P11802); construct: made in house; host or cells: insect cells (baculovirus co-infection); experiment: Inhibition of CDK4/Cyclin D retinoblastoma kinase activity; assay type: biochemical; conditions: test compound at 1 μM (head line shifted: 'mM' printed beside 'Structure'); read-out: % Inhib CDK4/D @ 1 μM;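 for % Inhib CDK4/D @ 1 μM: relative to DMSO control wells without compound minus no-enzyme background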
test_readout: inhibition at 1 µM (%)

Examples from the recorded data:
>  <compound>
NC(=O)CC[S+]([O-])c1ccc(Nc2nc(N)c(C(=O)c3c(Cl)cccc3Cl)s2)cc1 (centres unmarked)

>  <obs_value>
73.9

$$$$
>  <compound>
CN(C)CCC[S+]([O-])c1ccc(Nc2nc(N)c(C(=O)c3c(Cl)cccc3Cl)s2)cc1 (centres unmarked)

>  <obs_value>
70.2

$$$$
>  <compound>
Nc1nc(Nc2ccc(S(=O)(=O)Cc3ccccc3)cc2)sc1C(=O)c1c(Cl)cccc1Cl

>  <obs_value>
22.3

$$$$
>  <compound>
Nc1nc(Nc2ccc(SCCN3CCCC3)cc2)sc1C(=O)c1c(Cl)cccc1Cl

>  <obs_value>
55

$$$$
>  <compound>
Nc1nc(Nc2ccc(SCC(=O)Nc3ccccc3)cc2)sc1C(=O)c1c(Cl)cccc1Cl

>  <obs_value>
82

$$$$

(P) CC(C)OC(=O)CSc1ccc(Nc2nc(N)c(C(=O)c3c(Cl)cccc3Cl)s2)cc1
(Q) CCC(CC)CSc1cccc(Nc2nc(N)c(C(=O)c3c(Cl)cccc3Cl)s2)c1
(R) CC(C)OC(=O)CSc1cccc(Nc2nc(N)c(C(=O)c3c(Cl)cccc3Cl)s2)c1
Please list these compounds in decreasing order of inhibition at 1 µM. Please express your ranking as an ordered list of the labels.
P, R, Q

###

Target: CDK4/cyclin D3 (Homo sapiens, UniProt P11802)
Construct: made in house; host or cells: insect cells (baculovirus co-infection)
Experiment: Inhibition of CDK4/Cyclin D retinoblastoma kinase activity
Format: biochemical
Conditions: test compound at 0.1 μM; 0.1 µM
Experimental: Cyclin-dependent kinase activity was measured by quantifying the enzyme-catalyzed, time-dependent incorporation of radioactive phosphate from [^32P]ATP or [^33P]ATP into a protein substrate. […] The phosphorylated substrate was then captured on a nitrocellulose or phosphocellulose membrane using a 96-well filtration manifold, and unincorporated radioactivity was removed by repeated washing with 0.85% phosphoric acid. Radioactivity was quantified by exposing the dried membranes to a phosphorimager. […]
test_readout: % Inhib CDK4/D @ 0.1 μM (%)

Some entries whose results are on file:
>  <compound>
COC(=O)CS(=O)(=O)c1ccc(Nc2nc(N)c(C(=O)c3c(Cl)cccc3Cl)s2)cc1 [DD(226)]

>  <test_readout>
% Inhib CDK4/D @ 0.1 μM

>  <unit_spec>
%

>  <obs_value>
18

$$$$
>  <compound>
CC(C)OC(=O)CS(=O)(=O)c1ccc(Nc2nc(N)c(C(=O)c3c(Cl)cccc3Cl)s2)cc1 [DD(183)]

>  <test_readout>
% Inhib CDK4/D @ 0.1 μM

>  <unit_spec>
%

>  <obs_value>
17

$$$$

(a) CC(=O)OCCS(=O)(=O)c1ccc(Nc2nc(N)c(C(=O)c3c(Cl)cccc3Cl)s2)cc1 [DD(237)]
(b) Nc1nc(Nc2ccc(S(=O)(=O)Cc3ncon3)cc2)sc1C(=O)c1c(Cl)cccc1Cl [DD(208)]
API: POST /compare with a and b ; response names the item with higher % Inhib CDK4/D @ 0.1 μM. // output: label of the selected item
b
